Tested on: SK-OV-3
Assay: NCI tumour cell line growth inhibition, 48 h
The source made the active and inactive calls. Rule as the data show it: active = GI50 up to about 1.1 µM and inactive = higher.
Could you please pick one outcome from this set? active, inactive

IN: Outcome? CC(=O)O[C@H]1C(=O)[C@@]2(C)C([C@H](OC(=O)c3ccccc3)[C@]3(O)C[C@H](OC(=O)[C@H](O)[C@H](NC(=O)c4ccccc4)c4ccc(Cl)cc4)C(C)=C1C3(C)C)C1(OC(C)=O)CO[C@@H]1C[C@@H]2O (stereo not given in full)
OUT: active

IN: Hey, what did the test say about COc1ccc2nc3n(c2c1)C(c1c(Cl)cccc1Cl)SC3 (stereo not given) ?
OUT: inactive

IN: Each compound tested received a call. Report the one for COc1cc(-c2oc3c(OC)c(O)c(OC)c(O)c3c(=O)c2OC)cc(O)c1OC .
OUT: inactive

IN: Would you mind telling me which call this test gave CNC(=O)CCNC(=O)CCC(=O)N(C)C ?
OUT: inactive

From here, focus on the item given below.
IN: Status in this test for Cc1ccc(C(=O)/C=C(\O)C(=O)NC23CC4CC(CC(C4)C2)C3)cc1 ?
OUT: inactive

====

Tested on: MOLT-4
Test: NCI tumour cell line growth inhibition, 48 h
Activity calls are given as the source filed them. No stated cut-off is given here; in the data, active = GI50 up to about 1.1 µM and inactive = higher.
I would appreciate it if you answered using one of these outcomes: 1 (yes) for active, 0 (no) for inactive

Here's what some known entries look like.
IN: Could you check what this test reported for OCCCCCCCCCCCOc1ccc(C2OCC3(CC=CCC3)CO2)cc1 (stereo not given) ?
OUT: 0 (no)

IN: Short answer needed: outcome of this test for Clc1ccc(C(n2cc(Br)cn2)n2cc(Br)cn2)cc1 ?
OUT: 0 (no)

Others:
IN: Could you please tell me the result logged for N#CC(C#N)=C1/C(=C/C=C/C=C/C=C/c2ccc(N3CCCCC3)s2)S(=O)(=O)c2ccccc21 in this assay?
OUT: 0 (no)

IN: Could you check what this test reported for O=[N+]([O-])c1ccc(C(=S)Nc2ccccc2)o1 ?
OUT: 0 (no)

IN: What is the recorded call for this compound in the test? Cc1nc2c(O)cccc2c(=O)[nH]1
OUT: 0 (no)

IN: Can you look up the reported call for COC(=O)NNC(=O)OC.COC(=O)Nc1ccccc1NC(=O)OC.COC(=O)Oc1nn(C(=O)OC)c(=O)c2ccccc12 for me?
OUT: 0 (no)

IN: Field: outcome | Entry: O=C(N/N=C(COc1cccc(Cl)c1)\N=C\c1cccnc1)c1ccncc1
OUT: 0 (no)

IN: Write down the call the test reported for this compound. Item: CC12C(=CC(=O)CC1SCCS(=O)(=O)O)C(C#N)=C(N)N2c1ccc(Cl)c(Cl)c1 (stereo not given)
OUT: 0 (no)

IN: // param item: O=C(n1c2ccccc2c2nnc(S)nc21)C(F)(F)F ; yields the recorded call
OUT: 0 (no)

IN: Could you check what this test reported for COc1cc(/C=C2\C(=O)N(c3ccccc3Cl)C(c3ccccc3)S2(=O)=O)cc(OC)c1OC (stereo not given) ?
OUT: 0 (no)

IN: Query: recorded result category for C=CCn1c(=O)n(CC=C)c(=O)n(CC=C)c1=O in this test
OUT: 0 (no)

IN: In this assay, the call recorded for CCC(=S)N(C)O was what?
OUT: 0 (no)

IN: Test call for this compound, please: COc1ccc(C(=O)C#Cc2cnc(OC)nc2OC)cc1
OUT: 1 (yes)

IN: Could you kindly confirm the outcome this assay logged for CN(/N=C/c1ccnc2ccccc12)c1ccc(Cl)cc1[N+](=O)[O-] ?
OUT: 0 (no)

====

System: EKVX
Experiment: NCI tumour cell line growth inhibition, 48 h
Activity calls are given as the source filed them. Cut-off read from the data, not from the text of the source: active = GI50 up to about 1.1 µM and inactive = higher.
resultType: GI50

IN: Requested read-out: GI50. Entry: COc1cc(C(=O)Nc2cc(C(N)=O)cc(OC)c2OC)cc(NC(=O)/C=C/c2ccccc2)c1OC
OUT: > 100 µM (inactive)

IN: What value of GI50 has been reported for the following compound? NC(=S)N/N=C1\C(=O)N(CCc2ccccc2)C(=O)C1C(=O)NCCc1ccccc1 (stereo unspecified)
OUT: > 100 µM (inactive)

IN: Query: GI50; subject: COc1ccc(N2C(N)=C(C#N)C(C#N)(C#N)C2c2cccc([N+](=O)[O-])c2)cc1 (stereo unspecified)
OUT: 20.7 µM (inactive)

IN: # get_value(readout='GI50', item= O=P(OCc1ccccc1)(OCc1ccccc1)C(O)/C=C/c1ccccc1 (stereo unspecified) )
OUT: 33.3 µM (inactive)

---
IN: Data request, read-out GI50, for CCOC(=O)C(CS)NC(=O)CCCCCCCC(=O)O (stereo unspecified)
OUT: > 100 µM (inactive)

IN: What value of GI50 has been recorded for this entry: Cc1cc(NS(=O)(=O)c2ccc(/N=[N+](\[O-])c3ccc(S(=O)(=O)Nc4cc(C)on4)cc3)cc2)no1
OUT: > 100 µM (inactive)

IN: Fill in: GI50 of O=c1[nH]nc(-c2ccccc2)c2[nH]c(-c3ccccc3)cc12 is ___
OUT: > 100 µM (inactive)

IN: Item under review: CCOC(=O)C(=O)NCCCN1CCOCC1 . Reported GI50?
OUT: > 100 µM (inactive)

IN: I'd like to know its GI50. The compound in question is C#CCC1(C(=O)OCC)C(=O)c2ccccc2N(C)C1=O (stereo unspecified)
OUT: > 100 µM (inactive)

IN: Look up GI50: COc1ccc(/C=C/c2cc(OC)c(OCc3ccccc3)c(OC)c2)cc1
OUT: > 100 µM (inactive)

IN: Which GI50 reading was recorded for the compound O=C(N/N=C(COc1cccc(Cl)c1)\N=C\c1cccnc1)c1ccncc1 ?
OUT: > 100 µM (inactive)

IN: Quick check: GI50 of Cc1nc2c(O)cccc2c(=O)[nH]1 ?
OUT: 456 µM (inactive)

====

System: HCT-116
Test: NCI tumour cell line growth inhibition, 48 h
The source made the active and inactive calls. Cut-off read from the data, not from the text of the source: active = GI50 up to about 1.1 µM and inactive = higher.
Returns: one label drawn from active, inactive

Previously resolved entries follow.
IN: Please indicate how the test categorized O=c1[nH]/c(=C/c2cccs2)c(=O)[nH]/c1=C/c1ccc(OCc2ccccc2)cn1 .
OUT: active

IN: Could you check what this test reported for O=C1c2ccccc2CN1c1ccc(O)cc1 ?
OUT: inactive

IN: Test call, this compound: O=c1c2cc([N+](=O)[O-])ccc2n2n1CCCCC2
OUT: inactive

IN: // param item: CC(C)(C)OC(=O)n1cc(C2CNC(=O)C23CCC(=O)N3Cc2ccccc2)c2ccccc21 (stereo not drawn) ; yields the recorded call
OUT: inactive

IN: Returns: the outcome recorded for COc1nc2ncc([C@@H](OC(C)=O)[C@@H](COC(C)=O)OC(C)=O)nc2c(=O)n1C in this assay.
OUT: inactive

Continuing:
IN: Per the records of this test, what outcome belongs to CCc1ccccc1NC(=O)CC1NC(=O)CS1 (stereo not drawn) ?
OUT: inactive

IN: Recorded test outcome, item O/N=C1/C2CC3CC1(c1ccccc1)CC(/C3=N/O)/C2=N\O (stereo not drawn)
OUT: inactive

IN: Test call, this compound: COc1cc(/C=C/c2cc(=O)cc(/C=C/c3ccc(O)c(OC)c3)o2)ccc1O
OUT: inactive

IN: Write down the call the test reported for this compound. Item: COc1ccc2ccccc2c1CN1CCOCCOCCN(Cc2c(OC)ccc3ccccc23)CCOCCOCC1
OUT: inactive

IN: Please let me know the test result on file for Clc1ccc(/N=C2\c3ccccc3CN2c2ccc(Cl)cc2)cc1 .
OUT: inactive

IN: Please share the test call associated with COC(=O)[C@H]1C=C[C@@H](C)n2c(=O)c3cc4ccccc4cc3c(=O)n21 .
OUT: inactive

IN: Dear all, I need the recorded test outcome for CC1(C)C2CCC(CN)(C2)C1N (stereo not drawn) , thank you.
OUT: inactive

IN: Please share the test call associated with Cc1cc(C)nc(NS(=O)(=O)c2ccc(NC(=O)NC(F)(F)F)cc2)n1 .
OUT: inactive

IN: Which outcome was assigned to Cc1c2c(n(CCc3ccc(Cl)cc3)c1C)NN=C(C#N)S2(=O)=O in this test?
OUT: inactive

IN: Hi, do you know how CCOC1OC(C)(C=C(C#N)C#N)CCC1C (stereo not drawn) came out in this test?
OUT: inactive

IN: Short answer needed: outcome of this test for O=c1c2cc3c(=O)n(CCc4ccccc4CO)c(=O)c3cc2c(=O)n1CCc1ccccc1CO ?
OUT: inactive

IN: Returns: the outcome recorded for O=[N+]([O-])c1ccc(COc2cccc3cccnc23)cc1 in this assay.
OUT: inactive

IN: Record lookup: outcome of this test for c1ccc(C(c2ccccc2)c2ccccn2)cc1 ?
OUT: inactive

====

System: DU-145
Assay: NCI tumour cell line growth inhibition, 48 h
Active and inactive are the calls of the source. Cut-off read from the data, not from the text of the source: active = GI50 up to about 1.1 µM and inactive = higher.
resultType: GI50

IN: Please state recorded GI50 (tested on DU-145) of CCOC(=O)c1c(N2CCCC2)ncn(Cc2ccccc2)c1=S
OUT: > 100 µM (inactive)

IN: Can you look up GI50 on DU-145 for Cc1ccc(-c2c3nc(c(-c4ccc(C)cc4)c4ccc([nH]4)c(-c4ccc(OCC5COC(C)(C)O5)cc4)c4nc(c(-c5ccc(C)cc5)c5ccc2[nH]5)C=C4)C=C3)cc1 (stereo unspecified) ?
OUT: > 31.6 µM (inactive)

Continuing:
IN: Lookup: GI50 / DU-145 / COc1ccc(C(=O)C#Cc2cnc(OC)nc2OC)cc1
OUT: 2.31 µM (inactive)

IN: Lab request: please report GI50 under test system DU-145 for C/C(CC(O)(C(F)(F)F)C(F)(F)F)=N\O
OUT: > 10 µM (inactive)

IN: Reported GI50 for DU-145, given O=C(O)CCC(NC(=O)c1ccc(CNc2nc3cc(C(F)(F)F)ccc3nc2C(=O)O)cc1)C(=O)O (stereo unspecified) ?
OUT: > 100 µM (inactive)

IN: Given the entry COC(=O)C(NC(=O)C(CC(=O)OC(C)(C)C)NC(=O)OC(C)(C)C)C(O)c1ccccc1 (stereo unspecified) , what GI50 was observed with DU-145?
OUT: > 100 µM (inactive)
